procedure text: Bioavailability in male dog
Assay type: ADME, organism-based, Canis lupus familiaris
reported conditions: in vivo
measured attribute: bioavailability (%)

{"columns": ["molecule", "result units", "limit qualifier", "reported"],
 "data": [
  ["CN1CCN(CCOc2cc(OC3CCOCC3)c3c(Nc4c(Cl)ccc5c4OCO5)ncnc3c2)CC1 [SARACATINIB]", "%", ">", 50],
  ["Clc1ccc2c(c1Nc1ncnc3cc(OCCCN4CCCC4)cc(OC4CCOCC4)c13)OCO2", "%", "=", 85],
  ["COc1ccc(Cl)c(Nc2ncnc3cc(OCC4CCN(C)CC4)c(OC)cc23)c1 [AZM-475271]", "%", "=", 42],
  ["CN1CCC(COc2cc(OC3CCOCC3)c3c(Nc4c(Cl)ccc5c4OCO5)ncnc3c2)CC1", "%", "=", 57]
]}

---

procedure text: Volume of distribution in female rat at 20 mg/kg, po and 2 mg/kg, iv
Assay type: ADME, organism-based
reported conditions: in vivo, read-out: Vdss

{"columns": ["input smiles", "Vd"],
 "data": [
  ["CN1CCC(COc2cc(OC3CCOCC3)c3c(Nc4c(Cl)ccc5c4OCO5)ncnc3c2)CC1", "23.4 L/kg"]
]}

---

procedure text: Lipophilicity, log D at pH 7.4
Type: physicochemical
reported conditions: buffer
Examples of molecules with documented logD follow.
measured attribute: logD

{"columns": ["input smiles", "limit qualifier", "reported"],
 "data": [
  ["COc1cc(OC2CCN(C)CC2)c2c(Nc3c(Cl)ccc4c3OCO4)ncnc2c1", "=", 2.9],
  ["CC(C)Oc1cc(OCCN2CCOCC2)cc2ncnc(Nc3c(Cl)ccc4c3OCO4)c12", "=", 3.7],
  ["COc1ccc(Cl)c(Nc2ncnc3cc(OCC4CCN(C)CC4)c(OC)cc23)c1", "=", 2],
  ["CN1CCN(CCOc2cc(OC3CCOCC3)c3c(Nc4c(Cl)ccc5c4OCO5)ncnc3c2)CC1", "=", 2.9],
  ["Clc1ccc2c(c1Nc1ncnc3cc(OCCCN4CCCC4)cc(OC4CCOCC4)c13)OCO2", "=", 2.3],
  ["Clc1ccc2c(c1Nc1ncnc3cc(OCCc4ccncc4)cc(OC4CCOCC4)c13)OCO2", ">", 3.1]
]}

---

procedure text: Half life in rat at 25 mg/kg, po and 2 mg/kg, iv
Assay type: ADME, organism-based
reported conditions: in vivo

{"columns": ["compound", "half-life / h"],
 "data": [
  ["CN1CCN(CCOc2cc(OC3CCOCC3)c3c(Nc4c(Cl)ccc5c4OCO5)ncnc3c2)CC1 [SARACATINIB]", 5]
]}

---

procedure text: Clearance in male rat at 25 mg/kg, po and 2 mg/kg, iv
Type: ADME, organism-based
reported conditions: in vivo

{"columns": ["input smiles", "result units", "clearance"],
 "data": [
  ["CN1CCN(CCOc2cc(OC3CCOCC3)c3c(Nc4c(Cl)ccc5c4OCO5)ncnc3c2)CC1", "mL/min/kg", 20]
]}

---

System: A549
procedure text: Inhibition of A549 cell migration by microdroplet migration assay
Format: functional, cell-based
reported conditions: Homo sapiens
pIC50: −log10 of the molar value.
Examples of molecules with documented pIC50 follow.

{"columns": ["input smiles", "pIC50"],
 "data": [
  ["CN1CCN(CCCOc2cc(OC3CCOCC3)c3c(Nc4c(Cl)ccc5c4OCO5)ncnc3c2)CC1", 6.70],
  ["COc1cc(Oc2ccncc2)c2c(Nc3c(Cl)ccc4c3OCO4)ncnc2c1", 6.82],
  ["Clc1ccc2c(c1Nc1ncnc3cccc(Oc4ccncc4)c13)OCO2", 6.30],
  ["CN1CCC(Oc2cccc3ncnc(Nc4c(Cl)ccc5c4OCO5)c23)CC1", 6.15],
  ["CC(=O)N1CCN(CCOc2cc(OC(C)C)c3c(Nc4c(F)ccc5c4OCO5)ncnc3c2)CC1", 6.54],
  ["Clc1ccc2c(c1Nc1ncnc3cc(OCCN4CCCC4)cc(OC4CCOCC4)c13)OCO2", 6.52],
  ["COc1ccc(Cl)c(Nc2ncnc3cc(OCCCN4CCN(C)CC4)cc(OC4CCOCC4)c23)c1", 6.52],
  ["COc1ccc(Cl)c(Nc2ncnc3cc(OCCCN4CCOCC4)cc(OC(C)C)c23)c1", 6.40]
]}
